The values you see were collected from the supplement of paper PMC9170038.

Test system: MS2 coat protein
Experiment: apparent KD of MS2 coat protein; designed switch direction (-1 OFF switch, 1 ON switch): -1; higher = weaker reporter binding
Settings: input ligand: FMN 200 uM
property: apparent KD of MS2 coat protein (nM)
Respond numerically; units are nM and should not be typed.

GAUCAGGUAGGAUAUGCAGGAUCGGACUUGAGGAUCACCCAAGUGGCCAAAGUGCGUCCCGCAGAAGGGCCAAAAC [Biinxelace] (Eterna round: R97, puzzle: Exclusion 5) = 439

Please look at AAUAGACAUGAGGAUCACCCAUGUCAGGAUAUUUCGAGUAAGGUGGGCCUAGAAUUGGGAAGAAGGGACCUGGA [Eternabot (L1) Solution 29] (Eterna round: R97, puzzle: Exclusion 1) and tell me its recorded apparent KD of MS2 coat protein on MS2 coat protein.
17.7

Please look at CUGUACUGAGGAUAUACAUGAGGAUCACCCAUGUUCUUCGGCUAGGAAACUAGCAAAGGUAGAAGGCAGUACAG [Mat - Exclusion 3 - Eli Mod - D68] (Eterna round: R97, puzzle: Exclusion 3) and tell me its recorded apparent KD of MS2 coat protein on MS2 coat protein.
234

Please look at AGUACUGAGCAGGAUAUAUACAGGAUGCCCUCUGUAGAAGGGCUAACAUGAGGAUCACCCAUGUCCUAUAUGGC [Eternabot (L2) Solution 56] (Eterna round: R97, puzzle: Exclusion 6) and tell me its recorded apparent KD of MS2 coat protein on MS2 coat protein.
39

Please look at CUAAUACAUCAGGAUAUGUGUCAUUAUAGCGACACAGAAGGGAUGACAUGAGGAUCACCCAUGUCAAAGGGUGA [eternacac ex6r4 sub22] (Eterna round: R97, puzzle: Exclusion 6) and tell me its recorded apparent KD of MS2 coat protein on MS2 coat protein.
85.4

* * *

Test system: K4 kissing-loop RNA reporter;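 note: bound reporter read as fluorescence of individual clusters on recovered sequencing chips by microscopy, with normalized cluster intensities fitted with a binding model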
Assay: apparent KD of K4 kissing-loop reporter; higher = weaker reporter binding
Settings: Eterna round: R107; input ligand: tryptophan 2.4 mM
Entries and their apparent KD of K4 kissing-loop reporter values follow.
Respond numerically; units are µM and should not be typed.

Observe how each entry below is paired with its result.
AUGUGGAGCGACGUUUCGGGAUAUCGGGAAGGAGCGCUGAUAACGGCAGGUAGGUCGCCUGGUCCAGUGAUGUUGGGCAUGCAUU [Exclusion Arg A GF 24] = 0.155
GUUAAAUAAAUGGGCAUAGUGAUGUUGUGUCGAGGACCGGUACGGCCGCCACUCGAGCUAGCAUGCCGGUCAUUAUGGGUAGUUU [theeternabot_exclusion_KL_Trp_A_46] = 0.219

Give the value of apparent KD of K4 kissing-loop reporter reported for the following: AAUAAAAUCACGGCCGCCACUGAUAUCCAUAUUAGGAGUGAUGUUCCUAUGACUAUAUAAUUUAACAGGACCGGGUGAAUAUUUA [JR_SSTryptoB_Sub024]
0.1

Give the value of apparent KD of K4 kissing-loop reporter reported for the following: UUAGAGAUCUCAGGAUAUCAGUGAUGUUGAGAUUCAGAUCUGAGAUAGAAUUCUAUCUCAGAUCAAUGAGAAGGGAGAUCUCAUU [AK4.4 Exc FMN B]
0.443

Give the value of apparent KD of K4 kissing-loop reporter reported for the following: AGACUACCACACUGUCAAUAGACAGUGAGCUAGGAUAUGCUGAUAAGCAGAAGGAGUGAUGUUCCUGGGUAGUCAAUAAAAUAAU [FmnAX 13 G29+G67]
0.342

Give the value of apparent KD of K4 kissing-loop reporter reported for the following: AUUUAAUGUAUAGAUUAUAUACAUUAUUCAGAGGAUAUGCUUUGAAGCAGAAGGCUGGAUGUAGUGAUGUUGCAAUUUUAAUUUA [JR_SSFMNA_Sub006]
0.163

Give the value of apparent KD of K4 kissing-loop reporter reported for the following: AGACUUCACCGAAGGAGCGACGUGGCCUAGUGAUGUUAGGCACGAGAGAAAUCUCGUAUACGUCAGGUAGGUCGCGGUGAAGUCA [Omei KL Arginine B SS C v6]
0.18

* * *

Tested on: MS2 coat protein
Experiment: apparent KD of MS2 coat protein; designed switch direction (-1 OFF switch, 1 ON switch): -1; higher = weaker reporter binding
Conditions: Eterna round: R95; input ligand: none
property: apparent KD of MS2 coat protein
Answer format: number, then unit.

Observe how each entry below is paired with its result.
AGUACUAUGCGAGCUGACUUGCGUAGUGCAGCAGGUGUUACAUGAGGAUCACCCAUGUCCUCAUUUGCUCGUCUUAA [Mat - Sensor v3 - Turn-off var 2 - D7] (puzzle: Sensor v3, turn-off variant 2) = 293 nM
GGUCUGCGAGGAUAUACAUGAGGAUCACCCAUGUGCGAGAUACUAGUGAGGUCGAUUGGUAGAAGGCGCGGACG [JL-ex3-2.06 salish99 mod] (puzzle: Exclusion 3) = 88.8 nM
AGUAACUAUCACGAAAGUGAUAGUUACAAUAGCAGUGGAACAUGAGGAUCACCCAUGUCCUCAUUUGCUCGUCUUAU [Sensor 3 - 22] (puzzle: Sensor v3, turn-off variant 2) = 38.4 nM
UUUUACAAGCCAGAUCCUCACAUGAGGAUCACCCAUGUGCUCGUCUGUUUUCGCACUAUCACGUUUGUGAUAGUGCU [Level Boss var2-10] (puzzle: Sensor v3, turn-off variant 1) = 288 nM
GAAGGUGAGCAGGAUAUCCGCGCACGAAUAUAAGGAGAAGGGCUUACAUGAGGAUCACCCAUGUAAGGUGGUAG [Rexequar] (puzzle: Exclusion 6) = 11.5 nM
AAGAAACAUGAGGAUCACCCAUGUGAGGAUAUGAUUAAGAAAAGAAAAGAAAGAAGAAUCAGAAGGCACAAAGG [salish99-ex1_r3_042] (puzzle: Exclusion 1) = 108 nM

Give the value of apparent KD of MS2 coat protein reported for the following: AGUGCUAACACGAAAGUGUUAGUACAAUAAGCUUGUGAAACAUGAGGAUCACCCAUGUCCUCAUAAGCUCGUCUUAU [salish99_TOv2_r3_014] (puzzle: Sensor v3, turn-off variant 2)
17.7 nM

Give the value of apparent KD of MS2 coat protein reported for the following: GAUCGUUUAGAGGAUAUCAUGCUAAACAUUACAUGAGAAGGCUAGACAUGAGGAUCACCCAUGUAUGCUCGUGA [Exclusion 6 - 9:a] (puzzle: Exclusion 6)
14.8 nM

Give the value of apparent KD of MS2 coat protein reported for the following: GGCGGGACAGGAUAUCUAGCACUAAACAUGAGGAUCACCCAUGUGGUGGUCGCAGGUGUCAGAGAAGGGUCAAAAG [Atenabe] (puzzle: Exclusion 5)
1480 nM

Give the value of apparent KD of MS2 coat protein reported for the following: GGUUGGCGAGGAUAUACAUGAGGAUCACCCAUGUGAGAAUUAAAAGUGAGGAAGAAAAGUAGAAGGCGCUGACG [Mat - Exclusion 3 - Mod of Salish D4] (puzzle: Exclusion 3)
384 nM

Give the value of apparent KD of MS2 coat protein reported for the following: AGUAGUAGUAUCCGAUCUUACAUGAGGAUCACCCAUGUAGCUAGACGUGCACGCGAUGCUCGUCAGACUACCAGAUG [salish99_TOv1_r3_051] (puzzle: Sensor v3, turn-off variant 1)
277 nM

Give the value of apparent KD of MS2 coat protein reported for the following: GGUGCGUAUGUGAGGAUAUGCUGGUCCUUGGGUCAGCAGAAGGCACAUGAGGAUCACCCAUGUGGUGUCGUACC [salish99_Bmod_Ex4_026] (puzzle: Brourd's mod of Exclusion 4)
344 nM

* * *

System: MS2 coat protein
Test: apparent KD of MS2 coat protein; designed switch direction (-1 OFF switch, 1 ON switch): -1; higher = weaker reporter binding
Conditions: input ligand: microRNA oligo, concentration not stated
Entries and their apparent KD of MS2 coat protein values follow.
Respond numerically; units are µM and should not be typed.

UUUUUAUAUGAAGGAUAUACUUAACAUGAGGAUCACCCAUGUGGUGUUGUGAGUGAGUGAGUUUAGUAGAAGGUCAAUUAGCUU [JMF's solution 100] (Eterna round: R96, puzzle: Exclusion NG 2) = 0.185
CCGGGCCCGGGAGGAUAUACAUGAGGAUCACCCAUGUGGGCCCGGGCCCGCGGGCCCGGGCCCGUGUAGAAGGCCCGGGCCCGG [-64.8, -63.2 kcal, A 14%] (Eterna round: R96, puzzle: Exclusion NG 2) = 0.00513
CGGGCCGGCCUUCCGGCCGGCCCGACAUGAGGAUCACCCAUGUAGGAUAUCCCGGCUGCCGGCCGGGAGAAGGACAUGCGCCCG [-45.9, -45.9 kcal, 17% A] (Eterna round: R96, puzzle: Exclusion NG 3) = 0.0653
AACAGUAGAGGAUAUACAUGAGGAUCACCCAUGUGAUAUUUACGUGGCGUACCACGAAGUAGAAGGCUACUGGA [JL Maslow Revisted mod 14] (Eterna round: R96, puzzle: Exclusion 3) = 0.0325
GUCGUGCAGCUUUGCUGUACGAGUACAUGAGGAUCACCCAUGUAGGAUAUGGUACGCUUUGCGUGCCAGAAGGGCGUGCGUUGG [salish99_ExNG3_r04_005] (Eterna round: R96, puzzle: Exclusion NG 3) = 0.024
CGAUGUAACACAGGAUAUCAUCGCAACUGACGUUGAGAAGGGUGACAUGAGGAUCACCCAUGUGAUUUCUCAAUAUUAUACAUC [Prohibition 82 - Jieux - Exclusion NG 1] (Eterna round: R96, puzzle: Exclusion NG 1) = 0.83

Give the value of apparent KD of MS2 coat protein reported for the following: CGAUAAAAGACAGGAUAUGAGGAGAGAGAGAGAUCAGAAGGGUCACAUGAGGAUCACCCAUGUGAGUUCUCGAAAGGAAAGAGG [Prohibition 51 - Jieux - Exclusion NG 1] (Eterna round: R96, puzzle: Exclusion NG 1)
0.015

Give the value of apparent KD of MS2 coat protein reported for the following: GCGCAAACGCCAAAAGGCGAAACAACAUGAGGAUCACCCAUGUAGGAUAUCGAUUGCUUUGCAGUCGAGAAGGACAUAAUGCGC [JL ENG3 3.80 Mod 3] (Eterna round: R96, puzzle: Exclusion NG 3)
0.0119

Give the value of apparent KD of MS2 coat protein reported for the following: UUAUUAUGUGUAGGAUAUGCAUAUUAUUAUUAUGCAGAAGGACAUGAGGAUCACCCAUGUAUAUUAUUAUUAUAUAUUAUAUAU [Title] (Eterna round: R96, puzzle: Exclusion NG 1)
0.0251

Give the value of apparent KD of MS2 coat protein reported for the following: CCAUGGGAGCGAGGAUAUAGCCCAUGGGAAGAGCUAGAAGGCGCUGACAUGAGGAUCACCCAUGUGUUCAUGAGGAGGUGGACA (Eterna round: R96, puzzle: Exclusion NG 1)
0.128

Give the value of apparent KD of MS2 coat protein reported for the following: ACAUGUAUUGCAGGAUAUGGGACACAUGAGGAUCACCCAUGUGACUACAUGUCAUACCAAGCGUCUCAGAAGGGUAUGUACAUG [Ex NG2 #38] (Eterna round: R96, puzzle: Exclusion NG 2)
0.0158
